The measured values listed here are drawn from patent US20230303690A1.

Target: T1, LAG3 Protein, Human, Recombinant (His Tag) (Sino Biological Catalog No. 16498-H08H) (human, UniProt P18627 23-450)
T1 construct: Bought protein; also called hLAG3-His; LAG3-His; not shown: His tag
T1 sequence (looked up): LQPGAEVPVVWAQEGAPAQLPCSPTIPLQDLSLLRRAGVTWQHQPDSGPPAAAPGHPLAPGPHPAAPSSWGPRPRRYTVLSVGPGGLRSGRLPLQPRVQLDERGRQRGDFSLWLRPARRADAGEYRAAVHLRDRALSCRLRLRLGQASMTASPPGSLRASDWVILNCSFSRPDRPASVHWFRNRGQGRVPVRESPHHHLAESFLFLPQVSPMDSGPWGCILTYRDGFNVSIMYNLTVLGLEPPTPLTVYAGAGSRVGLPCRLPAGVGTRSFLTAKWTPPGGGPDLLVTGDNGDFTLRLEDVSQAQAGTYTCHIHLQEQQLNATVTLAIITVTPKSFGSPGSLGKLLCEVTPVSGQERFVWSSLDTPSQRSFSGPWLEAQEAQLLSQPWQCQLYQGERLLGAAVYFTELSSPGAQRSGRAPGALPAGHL
Test: SPR binning on LAG3-His; competitor 17
readout: RU (RU)
Hi! Could you send only the number? It should be in RU, unit omitted.

binder	observed.value
sdAb No. 21 (VHH, Fc of the tested form not described; also called sdAb 21; not shown: Fc part implied by anti-human Fc capture) VHH: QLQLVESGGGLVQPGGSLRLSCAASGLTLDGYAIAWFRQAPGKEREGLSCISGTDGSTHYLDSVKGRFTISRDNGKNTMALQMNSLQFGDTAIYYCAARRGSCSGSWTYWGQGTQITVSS	-12
sdAb No. 20 (VHH, Fc of the tested form not described; also called sdAb 20; not shown: Fc part implied by anti-human Fc capture) VHH: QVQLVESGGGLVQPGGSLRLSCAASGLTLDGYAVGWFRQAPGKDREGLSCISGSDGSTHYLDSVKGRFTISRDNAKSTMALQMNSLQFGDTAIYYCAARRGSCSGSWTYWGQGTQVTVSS	-7.8
sdAb No. 18 (VHH, Fc of the tested form not described; also called sdAb 18; not shown: Fc part implied by anti-human Fc capture) VHH: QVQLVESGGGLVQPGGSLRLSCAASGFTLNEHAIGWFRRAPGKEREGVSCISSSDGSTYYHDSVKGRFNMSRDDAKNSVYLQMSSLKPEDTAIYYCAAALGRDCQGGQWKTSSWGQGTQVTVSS	-14.7

Next, consider the following binder.
I have this binder here, sdAb No. 1 (VHH, the tested form was captured by anti-human Fc, its Fc is not described; also called sdAb 1; not shown: Fc part implied by anti-human Fc capture) VHH: QLQLVESGGGLVQAGGSLRLSCAASGFTFDDYAIGWFRQAPGKEREGVSCIRSSDGSTYYADSVKGRFTISSDNAKNTVYLQMNSLKPEDTAVYYCAKDNYSDCRGPYHYWGQGTQVTVSS , and I need its recorded RU.
-6.9
